tested.target: HLA-B*15:01
assay.summary: IEDB peptide-MHC binding, purified MHC/competitive/fluorescence; filed as Kd, often an IC50 or EC50 that approximates it; bounds were set here for any values at or beyond the usual limits of such assays
condition.summary: source organism: Vaccinia virus Copenhagen
measure: pKd
Field pKd (float): negative decimal logarithm of the concentration in molar.

query: Requested read-out: pKd. Entry: YTDLTYQSF
result: 5.58

====

tested.target: HLA-C*05:01
assay.summary: IEDB peptide-MHC binding, purified MHC/direct/fluorescence; filed as Kd, often an IC50 or EC50 that approximates it; bounds were set here for any values at or beyond the usual limits of such assays
condition.summary: source organism: Vibrio antiquarius
pKd: −log10 of the molar value.
measure: pKd

query: Lab request: please report pKd under test system HLA-C*05:01 for FAMTVPLLI
result: ≥ 9.00

====

tested.target: HLA-B*58:01
assay.summary: IEDB peptide-MHC binding, purified MHC/direct/fluorescence; filed as Kd, often an IC50 or EC50 that approximates it; bounds were set here for any values at or beyond the usual limits of such assays
condition.summary: source organism: Yellow fever virus
pKd: −log10 of the molar value.
measure: pKd

- EVRLATMLF: ≤ 4.70

query: Requested read-out: pKd. Entry: YFHKRDMRL
result: ≤ 4.70

====

Measured Kd accompanies every entry in the list below.
tested.target: HLA-A*69:01
assay.summary: IEDB peptide-MHC binding, purified MHC/direct/fluorescence; filed as Kd, often an IC50 or EC50 that approximates it; bounds were set here for any values at or beyond the usual limits of such assays
condition.summary: source organism: Homo sapiens
Your answer is read as µM, so omit the unit and give the number.

Previously resolved entries follow.
• YVDHYYRDY = 2
• IPYHIVNIV = 1.34

query: Requested read-out: Kd. Entry: GSDGGLDDY
result: 1.93

====

tested.target: HLA-C*07:02
assay.summary: IEDB peptide-MHC binding, purified MHC/direct/fluorescence; filed as Kd, often an IC50 or EC50 that approximates it; bounds were set here for any values at or beyond the usual limits of such assays
condition.summary: source organism: Homo sapiens
measure: Kd

query: Requested read-out: Kd. Entry: FRHSVVVPY
result: ≤ 1 nM

====

tested.target: HLA-A*68:01
assay.summary: IEDB peptide-MHC binding, purified MHC/competitive/radioactivity; filed as Kd, often an IC50 or EC50 that approximates it; bounds were set here for any values at or beyond the usual limits of such assays
condition.summary: source organism: Vaccinia virus Copenhagen
measure: Kd

query: Requested read-out: Kd. Entry: YLLVKWYKK
result: ≥ 23.4 µM

====

tested.target: HLA-B*57:01
assay.summary: IEDB peptide-MHC binding, purified MHC/competitive/radioactivity; filed as Kd, often an IC50 or EC50 that approximates it; bounds were set here for any values at or beyond the usual limits of such assays
condition.summary: source organism: Dengue virus 1 Brazil/97-11/1997
measure: Kd (nM)
Your answer is read as nM, so omit the unit and give the number.

- LGFMNEDHW: 26.2

query: Requested read-out: Kd. Entry: PATLFVWYFW
result: 169

====

tested.target: HLA-B*07:02
assay.summary: IEDB peptide-MHC binding, purified MHC/direct/fluorescence; filed as Kd, often an IC50 or EC50 that approximates it; bounds were set here for any values at or beyond the usual limits of such assays
condition.summary: source organism: Vibrio parahaemolyticus
measure: Kd

query: Requested read-out: Kd. Entry: EVDEGSDMM
result: ≥ 20 µM

====

tested.target: HLA-A*24:03
assay.summary: IEDB peptide-MHC binding, purified MHC/direct/fluorescence; filed as Kd, often an IC50 or EC50 that approximates it; bounds were set here for any values at or beyond the usual limits of such assays
condition.summary: source organism: Francisella tularensis subsp. holarctica LVS
measure: Kd (nM)
Your answer is read as nM, so omit the unit and give the number.

query: Lab request: please report Kd under test system HLA-A*24:03 for VYYIVVRDF
result: 27.5

====

tested.target: HLA-A*68:01
assay.summary: IEDB peptide-MHC binding, purified MHC/competitive/radioactivity; filed as Kd, often an IC50 or EC50 that approximates it; bounds were set here for any values at or beyond the usual limits of such assays
condition.summary: source organism: Dengue virus 2 Jamaica/1409/1983
Measured Kd accompanies every entry in the list below.
Your answer is read as nM, so omit the unit and give the number.

Previously resolved entries follow.
* NMISRMLINR | 137
* TVMDIISRR | 3.87

query: Requested read-out: Kd. Entry: GVFTTNIWLK
result: 1.45

query: Requested read-out: Kd. Entry: TIGTTHFQR
result: 18.4

====

tested.target: HLA-B*39:01
assay.summary: IEDB peptide-MHC binding, purified MHC/direct/fluorescence; filed as Kd, often an IC50 or EC50 that approximates it; bounds were set here for any values at or beyond the usual limits of such assays
condition.summary: source organism: Bacillus cereus H3081.97
measure: Kd

query: Requested read-out: Kd. Entry: PRFGSCYFL
result: ≥ 20 µM

====

tested.target: HLA-B*18:01
assay.summary: IEDB peptide-MHC binding, purified MHC/competitive/radioactivity; filed as Kd, often an IC50 or EC50 that approximates it; bounds were set here for any values at or beyond the usual limits of such assays
condition.summary: source organism: Mammarenavirus guanaritoense
pKd: −log10 of the molar value.
measure: pKd

query: Requested read-out: pKd. Entry: PEFDWILGWT
result: ≤ 4.15

====

tested.target: HLA-B*18:01
assay.summary: IEDB peptide-MHC binding, purified MHC/competitive/fluorescence; filed as Kd, often an IC50 or EC50 that approximates it; bounds were set here for any values at or beyond the usual limits of such assays
condition.summary: source organism: Francisella tularensis subsp. tularensis FSC198
pKd: −log10 of the molar value.
measure: pKd

query: Requested read-out: pKd. Entry: RSFPEWDYI
result: ≤ 4.70

====

tested.target: HLA-B*39:01
assay.summary: IEDB peptide-MHC binding, purified MHC/direct/fluorescence; filed as Kd, often an IC50 or EC50 that approximates it; bounds were set here for any values at or beyond the usual limits of such assays
condition.summary: source organism: Escherichia coli O157:H7 str. EC869
measure: pKd
Field pKd (float): negative decimal logarithm of the concentration in molar.

query: Lab request: please report pKd under test system HLA-B*39:01 for FRAICTNGL
result: 8.00

====

tested.target: HLA-A*30:01
assay.summary: IEDB peptide-MHC binding, purified MHC/competitive/radioactivity; filed as Kd, often an IC50 or EC50 that approximates it; bounds were set here for any values at or beyond the usual limits of such assays
condition.summary: source organism: Mammarenavirus guanaritoense
measure: pKd
Field pKd (float): negative decimal logarithm of the concentration in molar.

query: Lab request: please report pKd under test system HLA-A*30:01 for AVFQPSTGNY
result: 4.91

====

tested.target: HLA-A*30:01
assay.summary: IEDB peptide-MHC binding, purified MHC/competitive/radioactivity; filed as Kd, often an IC50 or EC50 that approximates it; bounds were set here for any values at or beyond the usual limits of such assays
condition.summary: source organism: Dengue virus 1 Brazil/97-11/1997
measure: Kd (nM)
Your answer is read as nM, so omit the unit and give the number.

query: Requested read-out: Kd. Entry: GKTRRYLPAI
result: 670

====

tested.target: HLA-A*01:01
assay.summary: IEDB peptide-MHC binding, purified MHC/direct/fluorescence; filed as Kd, often an IC50 or EC50 that approximates it; bounds were set here for any values at or beyond the usual limits of such assays
condition.summary: source organism: Ebola virus - Gabon (1994-1997)
measure: pKd
Field pKd (float): negative decimal logarithm of the concentration in molar.

query: Requested read-out: pKd. Entry: LSDLCNFLV
result: 7.17

====

tested.target: HLA-B*15:01
assay.summary: IEDB peptide-MHC binding, purified MHC/competitive/radioactivity; filed as Kd, often an IC50 or EC50 that approximates it; bounds were set here for any values at or beyond the usual limits of such assays
condition.summary: source organism: Vaccinia virus Copenhagen
measure: pKd
Field pKd (float): negative decimal logarithm of the concentration in molar.

query: Lab request: please report pKd under test system HLA-B*15:01 for MIKNLTQLF
result: 8.24

====

tested.target: HLA-A*01:01
assay.summary: IEDB peptide-MHC binding, purified MHC/direct/fluorescence; filed as Kd, often an IC50 or EC50 that approximates it; bounds were set here for any values at or beyond the usual limits of such assays
condition.summary: source organism: Haemophilus influenzae
measure: Kd (µM)
Your answer is read as µM, so omit the unit and give the number.

query: Requested read-out: Kd. Entry: LIFPAFFLC
result: 5.24

====

tested.target: HLA-A*02:16
assay.summary: IEDB peptide-MHC binding, purified MHC/direct/fluorescence; filed as Kd, often an IC50 or EC50 that approximates it; bounds were set here for any values at or beyond the usual limits of such assays
condition.summary: source organism: Rickettsia bellii RML369-C
measure: Kd

query: Requested read-out: Kd. Entry: NPLEIYQEI
result: ≥ 20 µM

Just for reference, the Immune Epitope Database (IEDB) is where these values come from.
